Reference source for all entries: the supplement of paper PMC9112550

Tested on: Escherichia coli TOP10;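 note: peptides expressed intracellularly from a pBAD plasmid library in pooled LB shake-flask culture, induced with 0.3% L-arabinose, DNA abundance read by NGS, three biological replicates, DESeq2 with apeglm shrinkage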
Assay: shrunken log2 fold change of peptide-encoding DNA abundance (4.5 h post-induction vs induction); higher = less antimicrobial activity (less host growth inhibition)
Conditions: time post-induction: 4.5 h; library: site-saturation at positions 5, 18, 19, 20
Endpoint label: shrunken log2 fold change

- Biopolymer sequence: "RRIRERPPRLPRPRPRPRVKPRP"
  Study system: "Escherichia coli TOP10"
  shrunken log2 fold change: -0.207
- Biopolymer sequence: "RRIRGRPPRLPRPRPRPPTFPRP"
  Study system: "Escherichia coli TOP10"
  shrunken log2 fold change: 0.572
- Biopolymer sequence: "RRIRKRPPRLPRPRPRPTKGPRP"
  Study system: "Escherichia coli TOP10"
  shrunken log2 fold change: 0.0795
- Biopolymer sequence: "RRIRLRPPRLPRPRPRPRYDPRP"
  Study system: "Escherichia coli TOP10"
  shrunken log2 fold change: 0.0436
- Biopolymer sequence: "RRIRNRPPRLPRPRPRPYIMPRP"
  Study system: "Escherichia coli TOP10"
  shrunken log2 fold change: -0.741
- Biopolymer sequence: "RRIRQRPPRLPRPRPRPQLSPRP"
  Study system: "Escherichia coli TOP10"
  shrunken log2 fold change: -0.0914

Quick one: give me shrunken log2 fold change for each item below, same order please.
1. RRIRGRPPRLPRPRPRPDSGPRP
2. RRIRLRPPRLPRPRPRPINEPRP

Result:
1: 0.128; 2: -0.0016

Please state, for each entry, its recorded shrunken log2 fold change.
1. RRIRCRPPRLPRPRPRPYWWPRP
2. RRIRGRPPRLPRPRPRPHEMPRP
3. RRIRYRPPRLPRPRPRPHPVPRP
4. RRIRARPPRLPRPRPRPYRCPRP
5. RRIRFRPPRLPRPRPRPMMEPRP
6. RRIRGRPPRLPRPRPRPTGIPRP

Result:
[-0.441, 0.143, -0.185, -0.174, -0.426, -0.0412]

For each entry beneath this line, provide reported shrunken log2 fold change.
1. RRIRIRPPRLPRPRPRPTSHPRP
2. RRIRCRPPRLPRPRPRPHKNPRP
3. RRIRMRPPRLPRPRPRPISFPRP
4. RRIRARPPRLPRPRPRPGEKPRP
5. RRIRVRPPRLPRPRPRPEFDPRP

Result:
1: -0.19; 2: -0.418; 3: -0.496; 4: 0.333; 5: 0.197

Below are 4 sequences. Give each one its shrunken log2 fold change.
1. RRIRRRPPRLPRPRPRPKDAPRP
2. RRIRDRPPRLPRPRPRPEYNPRP
3. RRIRVRPPRLPRPRPRPFISPRP
4. RRIRVRPPRLPRPRPRPIQGPRP

Result:
0.0371
-0.116
-0.11
0.0292

List reported shrunken log2 fold change for each of these sequences:
1. RRIRMRPPRLPRPRPRPYIPPRP
2. RRIRERPPRLPRPRPRPMDCPRP
3. RRIRMRPPRLPRPRPRPRYAPRP
4. RRIRPRPPRLPRPRPRPCQTPRP

Result:
[-1.28, -0.149, 0.467, 0.0185]

Provide shrunken log2 fold change values for the following items, in order.
1. RRIRRRPPRLPRPRPRPQNHPRP
2. RRIRNRPPRLPRPRPRPEAIPRP
3. RRIRGRPPRLPRPRPRPSLWPRP
4. RRIRFRPPRLPRPRPRPPTAPRP
5. RRIRWRPPRLPRPRPRPLCLPRP

Result:
[-0.191, 0.113, 0.611, 0.429, 0.949]
